experiment: Primary qHTS for inhibitors of nuclear receptor binding SET domain protein 2 (NSD2) in an isogenic RCH-ACV NSD2 p.E1099K mutant (9B) (AID 1645876); conditions: RCH-ACV (leukaemia line) NSD2 E1099K (9B) viability, CellTiter-Glo, 72 h; series mostly up to 44.9 µM; also: nearly all actives have a fitted effect of over 70% in size
Inconclusive results are not listed. Calls of active or inactive are those of the source. Calls follow the shape of the dose curve; as a rule, active = well fitted inhibition curve with a large enough effect; inconclusive = small, poorly fitted or top-dose-only effect; inactive = flat fitted curve, though single readings scatter.
Outcome codes: active, inactive

1) COc1cccc(Nc2ncnn3ccc(CN4CC[C@@H](N)[C@H](O)C4)c23)c1 = active
2) Cn1nnc(-c2ccc(-c3ccc(N4C[C@H](CO)OC4=O)cc3F)cn2)n1 = inactive
3) C=CC(C)(C)C12C=C(OC)C(=O)N3C(C(C)C)C(=O)NC31N(OC)c1ccccc12 (stereo not drawn) = inactive
4) CC1CCC2C(C(=O)O)=COC(O[C@@H]3O[C@H](CO)[C@@H](O)[C@H](O)[C@H]3O)C12 (stereo partly drawn) = inactive
5) COC(=O)C1=CO[C@@H](O[C@@H]2O[C@H](CO)[C@@H](O)[C@H](O)[C@H]2O)[C@H]2[C@@H]1CC(OC)O[C@@H]2C (stereo partly drawn) = inactive
6) C=C1CC23CC1CCC2C12OC(=O)C(C)(CCC1O)C2C3C(=O)O (stereo not drawn) = inactive
7) O=C(/C=C/c1ccc(O)cc1)N[C@@H](Cc1ccc(O)cc1)C(=O)O = inactive
8) CNC(=S)NS(=O)(=O)c1cc(CCNC(=O)c2cc(Cl)ccc2OC)ccc1OC = inactive
9) COc1cc(C(=O)OC[C@H]2O[C@@H](Oc3ccccc3/C=C/C(=O)O)[C@H](O)[C@@H](O)[C@@H]2O)cc(OC)c1OC = inactive
10) CCOc1ccc2nc(SCCN3CCOCC3)[nH]c2c1 = inactive
11) NC1(C(=O)NC(CCO)c2ccc(Cl)cc2)CCN(c2ncnc3[nH]ccc23)CC1 (stereo not drawn) = active
12) O=C(O)c1cc(I)ccc1NC(=O)[C@H](Cc1ccccc1)NCc1ccccc1 = inactive
13) CN(C)C/C=C/C(=O)Nc1cc2c(Nc3ccc(F)c(Cl)c3)ncnc2cc1OC1CCOC1 (stereo not drawn) = active
14) CC(=O)O[C@@H]1[C@@H](OC(=O)/C=C/c2ccccc2)[C@@H](OC(C)=O)[C@H](O[C@H]2[C@@H]3C=CO[C@@H](O[C@@H]4O[C@H](CO)[C@@H](O)[C@H](O)[C@H]4O)[C@@H]3[C@@]3(CO)O[C@@H]23)O[C@H]1C = inactive
15) CCCCNc1ncc2c(-c3ccc(F)cc3)nn(CC3CCC(N)CC3)c2n1 (stereo not drawn) = active
16) OC[C@H]1O[C@@H](OC(CCCCc2ccc(O)cc2)CCc2ccc(O)cc2)[C@H](O)[C@@H](O)[C@@H]1O (stereo partly drawn) = inactive
17) N=c1nc2n(cc1F)C1OC(CO)C(O)C1O2 (stereo not drawn) = active
18) CC1CC(O)/C=C/C(O)C(O)CC(=O)Cc2c(Cl)c(O)cc(O)c2C(=O)O1 (stereo not drawn) = inactive
